Cited source: paper PMC3000536

Study System: Rice α-Glucosidase (Oryza sativa subsp. japonica)
Metric: IC50 (µM)

• C[C@]1(CO)NC[C@@H](O)[C@@H]1O [4-C-Me-DAB 1D] = 7.1
• OC[C@@]1(O)CNC[C@H]1O [isoDAB 2D] = 41
• C[C@@]1(CO)NC[C@H](O)[C@H]1O [4-C-Me-LAB 1L] = 5.8

---

Study System: Rat intestinal maltase
Assay Method Text: Glycosidase inhibition, rat intestinal maltase
Condition Description: read-out: IC50 α-Glucosidase Rat intestinal maltase
Listing: IC50 of selected molecules
Metric: IC50

• OC[C@@]1(O)CNC[C@H]1O = 24 µM
• OC[C@]1(O)CNC[C@@H]1O = > 1000 µM
• C[C@]1(CO)NC[C@@H](O)[C@@H]1O = 0.74 µM
• C[C@@]1(CO)NC[C@H](O)[C@H]1O = 2.4 µM

---

Study System: Almond β-Glucosidase
Assay Method Text: Glycosidase inhibition, almond β-glucosidase
Condition Description: read-out: IC50 β-Glucosidase Almond
Metric: IC50

• OC[C@]1(O)CNC[C@@H]1O = > 1000 µM
• OC[C@@]1(O)CNC[C@H]1O = > 1000 µM
• C[C@@]1(CO)NC[C@H](O)[C@H]1O = > 1000 µM
• OC[C@H]1NC[C@@H](O)[C@@H]1O = 250 µM
• C[C@]1(CO)NC[C@@H](O)[C@@H]1O = > 1000 µM
• OC[C@@H]1NC[C@H](O)[C@H]1O = > 1000 µM

---

Listing: Ki of selected molecules
Study System: UniProtKB P23739
Metric: Ki (nM)

* C[C@]1(CO)NC[C@@H](O)[C@@H]1O | 890
* C[C@@]1(CO)NC[C@H](O)[C@H]1O | 950

---

System: Rat intestinal cellobiase (Rattus norvegicus, UniProt Q02401) | Read-out: IC50
Sequence (Q02401 868-1928): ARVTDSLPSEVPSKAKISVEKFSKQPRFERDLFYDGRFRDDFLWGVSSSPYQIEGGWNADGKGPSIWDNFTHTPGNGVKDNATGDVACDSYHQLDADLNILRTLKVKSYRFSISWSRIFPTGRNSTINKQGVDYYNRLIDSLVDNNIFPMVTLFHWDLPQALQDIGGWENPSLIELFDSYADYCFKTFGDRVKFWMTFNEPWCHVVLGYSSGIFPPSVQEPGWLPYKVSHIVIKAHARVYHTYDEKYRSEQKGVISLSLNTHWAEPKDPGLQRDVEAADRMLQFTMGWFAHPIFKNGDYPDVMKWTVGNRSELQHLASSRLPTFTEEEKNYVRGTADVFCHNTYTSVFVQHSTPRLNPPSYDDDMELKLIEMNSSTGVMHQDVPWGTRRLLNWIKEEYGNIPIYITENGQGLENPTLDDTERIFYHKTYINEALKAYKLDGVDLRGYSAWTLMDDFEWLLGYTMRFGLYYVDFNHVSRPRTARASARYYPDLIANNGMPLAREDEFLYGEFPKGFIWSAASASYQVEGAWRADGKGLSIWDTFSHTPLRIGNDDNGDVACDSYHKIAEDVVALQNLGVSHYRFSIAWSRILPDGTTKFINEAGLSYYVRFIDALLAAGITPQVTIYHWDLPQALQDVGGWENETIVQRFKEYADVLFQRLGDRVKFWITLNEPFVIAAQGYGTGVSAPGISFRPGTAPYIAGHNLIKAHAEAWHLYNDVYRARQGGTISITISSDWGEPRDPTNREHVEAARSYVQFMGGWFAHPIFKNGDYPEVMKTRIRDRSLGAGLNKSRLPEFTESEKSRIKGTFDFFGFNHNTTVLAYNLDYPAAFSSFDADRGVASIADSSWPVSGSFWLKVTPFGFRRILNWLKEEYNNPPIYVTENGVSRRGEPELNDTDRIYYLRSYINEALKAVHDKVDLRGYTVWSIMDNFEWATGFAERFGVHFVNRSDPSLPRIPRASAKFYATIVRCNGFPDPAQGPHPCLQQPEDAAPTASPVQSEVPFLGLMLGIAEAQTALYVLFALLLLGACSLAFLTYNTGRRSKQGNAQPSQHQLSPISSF
Metric: IC50

- C[C@]1(CO)NC[C@@H](O)[C@@H]1O: > 1000 µM
- C[C@@]1(CO)NC[C@H](O)[C@H]1O: > 1000 µM
- OC[C@H]1NC[C@@H](O)[C@@H]1O: 756 µM
- OC[C@]1(O)CNC[C@@H]1O: > 1000 µM
- OC[C@@H]1NC[C@H](O)[C@H]1O: > 1000 µM
- OC[C@@]1(O)CNC[C@H]1O: > 1000 µM

---

pIC50: −log10 of the molar value.
System: Rat intestinal isomaltase (Rattus norvegicus, UniProt P23739) | Read-out: pIC50
Sequence (P23739 whole entry): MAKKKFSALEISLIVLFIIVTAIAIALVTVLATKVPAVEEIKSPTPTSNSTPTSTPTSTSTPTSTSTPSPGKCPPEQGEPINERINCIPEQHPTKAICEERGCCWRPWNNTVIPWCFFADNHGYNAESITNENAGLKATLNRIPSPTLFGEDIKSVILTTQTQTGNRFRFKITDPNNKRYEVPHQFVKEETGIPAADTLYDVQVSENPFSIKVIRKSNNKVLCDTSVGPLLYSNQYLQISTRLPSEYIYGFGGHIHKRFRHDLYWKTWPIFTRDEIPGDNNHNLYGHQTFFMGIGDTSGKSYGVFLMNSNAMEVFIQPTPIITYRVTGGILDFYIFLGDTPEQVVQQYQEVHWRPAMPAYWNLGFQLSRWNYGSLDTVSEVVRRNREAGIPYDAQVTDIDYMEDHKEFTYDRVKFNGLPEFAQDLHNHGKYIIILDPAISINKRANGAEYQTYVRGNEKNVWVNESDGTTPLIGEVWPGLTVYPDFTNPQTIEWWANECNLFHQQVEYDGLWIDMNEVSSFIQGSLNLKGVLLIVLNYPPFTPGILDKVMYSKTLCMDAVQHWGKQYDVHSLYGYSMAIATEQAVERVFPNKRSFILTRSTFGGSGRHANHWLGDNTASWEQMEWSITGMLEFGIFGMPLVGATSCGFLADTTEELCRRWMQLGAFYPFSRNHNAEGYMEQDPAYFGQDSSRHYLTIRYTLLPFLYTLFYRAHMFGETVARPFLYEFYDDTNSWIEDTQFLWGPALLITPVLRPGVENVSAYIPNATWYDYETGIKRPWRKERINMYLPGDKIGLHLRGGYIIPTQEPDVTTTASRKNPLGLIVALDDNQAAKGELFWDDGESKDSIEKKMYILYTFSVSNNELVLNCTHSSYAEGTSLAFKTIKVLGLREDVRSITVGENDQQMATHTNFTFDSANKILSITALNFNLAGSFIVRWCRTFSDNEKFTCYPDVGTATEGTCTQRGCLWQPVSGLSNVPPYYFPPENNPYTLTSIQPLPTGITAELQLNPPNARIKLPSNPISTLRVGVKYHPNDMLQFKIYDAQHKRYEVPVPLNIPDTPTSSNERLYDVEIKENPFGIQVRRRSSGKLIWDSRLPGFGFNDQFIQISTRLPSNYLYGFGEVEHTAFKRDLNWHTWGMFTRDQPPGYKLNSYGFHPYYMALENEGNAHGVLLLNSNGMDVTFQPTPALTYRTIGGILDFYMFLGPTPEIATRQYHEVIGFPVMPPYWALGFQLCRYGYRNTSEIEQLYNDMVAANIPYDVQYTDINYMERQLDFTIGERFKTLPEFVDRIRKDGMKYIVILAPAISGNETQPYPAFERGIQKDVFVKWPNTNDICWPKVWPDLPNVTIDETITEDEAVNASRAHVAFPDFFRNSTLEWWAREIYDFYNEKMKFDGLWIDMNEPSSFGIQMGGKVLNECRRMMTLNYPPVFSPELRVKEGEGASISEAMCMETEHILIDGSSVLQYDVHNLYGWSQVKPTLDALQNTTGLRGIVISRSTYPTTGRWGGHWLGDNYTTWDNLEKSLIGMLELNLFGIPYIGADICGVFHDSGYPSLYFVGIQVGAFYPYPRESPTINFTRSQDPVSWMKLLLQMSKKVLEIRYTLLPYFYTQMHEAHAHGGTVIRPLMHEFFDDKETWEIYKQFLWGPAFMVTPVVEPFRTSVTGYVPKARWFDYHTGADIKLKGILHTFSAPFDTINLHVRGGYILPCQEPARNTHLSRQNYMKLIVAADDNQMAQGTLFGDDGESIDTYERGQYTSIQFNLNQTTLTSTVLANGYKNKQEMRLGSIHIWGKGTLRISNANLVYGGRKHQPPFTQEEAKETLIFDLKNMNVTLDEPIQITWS
Metric: pIC50

• C[C@@]1(CO)NC[C@H](O)[C@H]1O = 5.29
• OC[C@@]1(O)CNC[C@H]1O = 4.70
• C[C@]1(CO)NC[C@@H](O)[C@@H]1O = 5.47

---

Study System: Rat intestinal sucrase (Rattus norvegicus, UniProt P23739)
Sequence (P23739 whole entry): as above
Assay Method Text: Glycosidase inhibition and kinetic analysis, rat intestinal sucrase
pIC50: −log10 of the molar value.
Listing: pIC50 of selected molecules
Metric: pIC50

• C[C@]1(CO)NC[C@@H](O)[C@@H]1O = 6.39
• OC[C@@]1(O)CNC[C@H]1O = 4.82
